Molecular target: T1, TNFR1 (Homo sapiens, UniProt P19438)
T1 chain: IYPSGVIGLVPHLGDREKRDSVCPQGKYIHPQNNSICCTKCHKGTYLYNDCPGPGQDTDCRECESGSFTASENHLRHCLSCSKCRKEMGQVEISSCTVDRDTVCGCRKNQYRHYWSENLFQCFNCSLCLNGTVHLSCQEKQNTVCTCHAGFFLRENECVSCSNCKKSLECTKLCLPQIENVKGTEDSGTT
Assay: yeast display SC50
Parameter: apparent Kd (screen). Scope: all listed entries.

- Binder: "E49H (designed binder) SMEEEVEKAAKEYEKKKKEAIEKHLEKLKAKDKEAAERFLKELEEAAKHYAKDEAKTMSEEEAKRRAKKYKEKVLLSELSEEEQKEIKEAEEKLVRTILKYVEEAAK"
  apparent Kd (screen): "10.4 nM"
- Binder: "H24Y (designed binder) SMEEEVEKAAKEYEKKKKEAIEKYLEKLKAKDKEAAERFLKELEEAAKEYAKDEAKTMSEEEAKRRAKKYKEKVLLSELSEEEQKEIKEAEEKLVRTILKYVEEAAK"
  apparent Kd (screen): "1.69 nM"

FYI, the data here is from paper PMC12416549.
